# Tested on: Hepatitis B virus
# assay_procedure: Antiviral activity against HBV infected in human HepG2.2.15 cells assessed as inhibition of HBsAg level incubated for 6 days by microplate-based chemiluminescence immunoassay
# Format: functional, organism-based
# condition: HepG2 2.2.15, 144 h
# pEC50 per record follows
The scale used: pEC50 is minus the common logarithm of the concentration in molar units.

Example entries and their recorded answers appear below.
> print(dat)
                            chemical.smiles  data.value
1  COCCCCOc1cc2c(cc1Cl)-c1cc(=O)c(C(=O)O)cn1[C@H](C(C)C)CO2        7.80
2  COc1cccc(Cn2cc(C(C)C)n3cc(C(=O)O)c(=O)cc3c2=O)c1        5.30
3  C=Cc1cc2c(cc1OCCCOC)OC[C@@H](C(C)C)n1cc(C(=O)O)c(=O)cc1-2        8.40
4  COCCCOc1cc2c(cc1C1CC1)-c1cc(=O)c(C(=O)O)cn1[C@H](C(C)C)CO2        8.22
5  COCCCOc1cc2c(nc1OC)-c1cc(=O)c(C(=O)O)cn1[C@](C)(C(C)C)C2        8.10

For the next question, use this compound.
Task: Return pEC50 for the following compound: COCCCOc1cc2c(nc1OC)-c1cc(=O)c(C(=O)O)cn1[C@@H](C(C)C)C2
Output: 6.02
